Listing: % inhibition T4 130' 5 of selected molecules
Measured Target: bacteriophage T4 DNA polymerase (Enterobacteria phage T4, UniProt P04415)
Construct: made in house
Sequence (P04415 whole entry): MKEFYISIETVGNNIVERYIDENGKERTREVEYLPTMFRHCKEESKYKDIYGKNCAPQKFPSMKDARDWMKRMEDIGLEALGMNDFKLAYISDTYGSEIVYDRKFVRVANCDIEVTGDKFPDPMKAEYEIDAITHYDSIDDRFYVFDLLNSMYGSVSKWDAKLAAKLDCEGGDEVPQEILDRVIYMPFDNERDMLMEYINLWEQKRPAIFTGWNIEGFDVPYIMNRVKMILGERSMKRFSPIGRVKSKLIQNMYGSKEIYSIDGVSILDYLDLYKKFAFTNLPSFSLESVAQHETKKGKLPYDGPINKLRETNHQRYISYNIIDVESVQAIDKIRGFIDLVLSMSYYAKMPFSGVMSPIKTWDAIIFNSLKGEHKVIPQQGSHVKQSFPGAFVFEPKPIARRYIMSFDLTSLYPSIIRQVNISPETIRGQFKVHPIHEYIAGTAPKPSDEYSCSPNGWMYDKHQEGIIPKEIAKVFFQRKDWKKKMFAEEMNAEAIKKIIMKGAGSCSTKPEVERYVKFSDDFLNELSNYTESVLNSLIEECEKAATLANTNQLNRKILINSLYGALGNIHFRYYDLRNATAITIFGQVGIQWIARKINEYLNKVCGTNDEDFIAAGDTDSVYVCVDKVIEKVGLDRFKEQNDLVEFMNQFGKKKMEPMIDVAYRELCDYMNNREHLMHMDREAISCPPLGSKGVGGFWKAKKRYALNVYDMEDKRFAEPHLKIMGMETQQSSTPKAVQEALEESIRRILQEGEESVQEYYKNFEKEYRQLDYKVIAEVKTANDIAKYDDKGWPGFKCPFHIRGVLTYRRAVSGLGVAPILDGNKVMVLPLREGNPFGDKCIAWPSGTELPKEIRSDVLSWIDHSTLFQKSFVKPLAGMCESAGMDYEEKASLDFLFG
Experimental Details: Counter-screen against bacteriophage T4 DNA polymerase
Format: biochemical
Condition Parameters: DRC-1; read at 130'; concentration 5
Quantity: % inhibition T4 130' 5

Molecule	Observed Value
N#Cc1c(O)nc(N2CCCCC2)nc1-c1ccc2c(c1)OCO2 [KU0083146]	-9.967%
Cc1cccc(-c2noc(C(=O)NNC(=O)C(Cl)(Cl)Cl)n2)c1 [KU0266208]	-3.982%
Cn1nc(-c2nnc(-c3ccccc3F)o2)c2c1CCN(C(=O)c1ccccc1Cl)C2 [Molecule 34]	-4%
Cc1cc2[nH]c(C(=O)Nc3ccc(F)cc3)c(CN3CCOCC3)c2s1 [Molecule 60]	0.5371%

###

Listing: % inhibition apPOL 180' of selected compounds
Measured Target: P. falciparum apicoplast DNA polymerase (Pf-apPOL) (Plasmodium falciparum, UniProt Q8ILY1)
Sequence (Q8ILY1 entry or part of it): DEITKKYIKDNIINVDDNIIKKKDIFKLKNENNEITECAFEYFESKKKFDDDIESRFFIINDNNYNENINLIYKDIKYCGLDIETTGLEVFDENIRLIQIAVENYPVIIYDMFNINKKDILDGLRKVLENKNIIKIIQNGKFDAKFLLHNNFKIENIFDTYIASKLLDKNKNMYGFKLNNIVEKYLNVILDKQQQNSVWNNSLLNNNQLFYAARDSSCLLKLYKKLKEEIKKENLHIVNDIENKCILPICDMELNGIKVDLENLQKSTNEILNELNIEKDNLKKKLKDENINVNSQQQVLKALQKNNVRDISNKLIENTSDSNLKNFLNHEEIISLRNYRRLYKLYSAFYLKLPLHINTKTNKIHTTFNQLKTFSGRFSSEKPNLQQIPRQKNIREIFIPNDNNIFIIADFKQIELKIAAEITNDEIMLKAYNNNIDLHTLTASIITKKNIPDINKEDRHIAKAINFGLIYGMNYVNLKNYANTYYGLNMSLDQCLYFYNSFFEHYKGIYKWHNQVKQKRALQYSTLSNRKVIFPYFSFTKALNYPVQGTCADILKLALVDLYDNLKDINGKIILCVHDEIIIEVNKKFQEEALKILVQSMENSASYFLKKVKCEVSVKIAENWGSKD
Experimental Details: Fluorescence-based high-throughput DNA polymerase assay (molecular beacon), primary screen and dose-response;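 on % inhibition apPOL 180': test concentration in µM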
Format: biochemical
Condition Parameters: DRC-2, 180', concentration 80
Source text: The HT assay employs a molecular beacon, a stem-loop DNA template with a Cy3 dye and the Black Hole Quencher on the 3′ and 5′ ends of the DNA, respectively. Pf-apPOL concentration is based on a calculated absorptivity of ε280 = 56750 M^−1 cm^−1. […] To identify apPOL inhibitors we utilised our previously developed high-throughput DNA polymerase assay. […] The assay accurately recapitulates the kinetic behaviour of apPOL, as measured through more conventional low-throughput gel-based assays. […]

Compound	% inhibition apPOL 180' (%)
COc1cc(/C=C2\S/C(=N/C(C)=O)NC2=O)cc(Br)c1OCC(=O)O [KU0057841]	49
CS(=O)(=O)c1cccc(C(=O)Nc2nnc(-c3ccno3)o2)c1 [KU0171319]	26
O=[N+]([O-])c1cc2c(cc1CN1CCN(c3cccc(Cl)c3)CC1)OCO2 [KU0005610]	53
Cc1ncc(CSc2nc(C(C)(C)C)cs2)c(CO)c1O [KU0264007]	58
O=C(NNC(=O)C(F)(F)Sc1ccccc1)c1ccsc1 [Molecule 68, O=C(C(Sc1ccccc1)(F)F)NNC(=O)c1cscc1]	55
COc1ccccc1CCC(=O)N1CCc2c(nc3cc(-c4ccccc4)[nH]n3c2=O)C1 [Molecule 7]	41
O=c1cc(-c2ccccc2)oc2c(O)c(O)ccc12 [Molecule 84, Oc1ccc2c(c1O)oc(cc2=O)c1ccccc1]	23
CN(C)C=CC(=O)c1ccccn1 [Molecule 64, CN(C=CC(=O)c1ccccn1)C]	63
O=[N+]([O-])c1cc2c(cc1CN1CCCCCC1)OCO2 [KU0004987]	36
O=C(Nc1nnc(-c2ccno2)o1)c1ccc2c(c1)OCO2 [KU0171343]	51
O=C(O)CC1=NN(c2cccc([N+](=O)[O-])c2)C(=O)C1 [KU0100531]	70

###

Measured Target: P. falciparum apicoplast DNA polymerase (Pf-apPOL) (Plasmodium falciparum)
Experimental Details: Fluorescence-based high-throughput DNA polymerase assay (molecular beacon), primary screen and dose-response
Format: biochemical
Condition Parameters: DRC-1; 10'; concentration 40
Listing: % inhibition Apo pol 10' of selected molecules
Quantity: % inhibition Apo pol 10' (%)

Molecule	Quantity	Scale Unit	Observed Value
O=c1[nH]c2ccc([N+](=O)[O-])cc2c(-c2ccccc2)c1Sc1nc2ccccc2o1	% inhibition Apo pol 10'	%	71.988
CN(C)S(=O)(=O)Oc1ccc(-c2noc(-c3ccc(Oc4cc(Cl)cc(Cl)c4)o3)n2)cc1	% inhibition Apo pol 10'	%	79.6706
Cc1ccc(-n2nnc(C(=O)O)c2-c2ccccn2)c(F)c1	% inhibition Apo pol 10'	%	63.8546
N#Cc1c(C2CCCCC2)nc(Sc2ccc(C(F)(F)F)cc2[N+](=O)[O-])[nH]c1=O	% inhibition Apo pol 10'	%	96.8636
COc1ccc(C)cc1NC(=O)Cn1ccc2c(=O)[nH]ccc21 [Molecule 15, COc1ccc(cc1NC(=O)Cn1ccc2c1cc[nH]c2=O)C]	% inhibition Apo pol 10'	%	82.3162
CC1=NNC(=O)C1Oc1ccc(Cl)cc1Cl (stereo not shown)	% inhibition Apo pol 10'	%	60.3328
O=C(O)c1ccc(-c2nc3cc(-c4ccc5nc(-c6ccc(C(=O)O)cc6)[nH]c5c4)ccc3[nH]2)cc1	% inhibition Apo pol 10'	%	63.5867
